# Tested on: TNNI3K
# test.settings: concentration: 1 μM, replicates: in singlicate; n = 1;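 also: KINOMEscan kinase panel screen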
Label 1 (yes) when %Inh is strictly below 20%; at or above that, label 0 (no).

molecule	classification
Cc1ccc(NC(=O)Nc2ccccc2)cc1-c1ccc(C(=O)Nc2ccncc2)cc1	0 (no)
Cn1cnc2c(N)ncnc21	1 (yes)

Request: Is the reported %Inh for `Cc1c(Cn2c(C)c(C)n3c(=O)cc(N4CCOCC4)nc23)cccc1C(F)(F)F` strictly below 20%?
Response: 1 (yes)

Request: Repeat with `CCn1c(-c2c(N)noc2C)nc2cnccc21`
Response: 1 (yes)

Request: Repeat with `Fc1ccc(-c2nc[nH]c2-c2ccncc2)cc1`
Response: 1 (yes)

====

# Test system: SNARK
# Construct: gene NUAK2
# test.settings: concentration: 1 μM, replicates: in singlicate; n = 1
measured.quantity: %Inh (%)
One number for each entry, in %.

Example results:
compound	%Inh, %
c1ccc(-c2ccnc3[nH]ccc23)cc1 [SB-693578]	48
Cc1ccc(NC(=O)c2ccc(Cl)cc2)cc1-c1ccc(C(=O)Nc2ccncc2)cc1 [GSK1398467]	0
O=C1NC(=O)C(c2ccc(Cl)cc2)=C1Nc1ccc(O)cc1 [SB-340867]	0
CCn1c(-c2ccccc2)nc2cnccc21 [SB-733416]	0
Nc1ncnc2occ(-c3ccc4c(c3)CCN4C(=O)Cc3cc(F)ccc3F)c12 [GSK2645446]	7
O=C(Nc1n[nH]c2nc(-c3cccs3)c(Br)cc12)C1CC1 [SB-735297]	10
CC[C@@H]1CO[C@H](C(=O)Nc2ccccc2)CN1c1cc(-c2ccc3c(N)n[nH]c3c2)nc(NC)n1 [GSK2376236]	26
Cn1cncc1C(=O)NC1CCN(c2ccnc(Nc3ccc(F)cc3)n2)C1 (stereo not drawn) [GSK1379717]	0
COc1ccc(CSc2nnc(-c3ccc4nccn4c3)o2)cc1C(F)(F)F	77
COC(=O)C(NC(=O)NC1CCN(c2ccnc(Nc3ccc(F)cc3)n2)C1)c1ccccc1 (stereo not drawn) [GSK1379712]	5

Batch request: %Inh per item, same order as input.
1. CNC(=O)c1ccc(C)c(-n2c(C)cc(OCc3ccc(F)cc3F)c(Br)c2=O)c1
2. CNc1nc(-c2ccc3c(N)n[nH]c3c2)cc(N2C[C@@H](C(=O)Nc3ccccc3)CC[C@H]2C)n1 [GSK2298859]

Response:
[0, 8]

Batch request: %Inh per item, same order as input.
1. O=C(Nc1n[nH]c2nc(-c3cccs3)c(Br)cc12)C1CCCC1 [SB-743341]
2. CNc1cc(-c2ccc3c(N)n[nH]c3c2)nc(N)n1 [GSK2224810]
3. Cc1nccc(-c2c(-c3ccc(F)cc3)ncn2CCCN2CCOCC2)n1.Cl [SB-282975]
4. Cc1ccc(NC(=O)Nc2ccccc2)cc1-c1ccc(C(=O)Nc2ccncc2)cc1 [GSK1398471]
5. COC(=O)c1cccc(NC(=O)NC2CCN(c3ccnc(Nc4ccc(OC)cc4)n3)C2)c1 (stereo not drawn) [GSK1379746]
6. COc1ccc(Nc2nccc(N3CCC(NC(=O)C(C)c4ccc(Cl)cc4)C3)n2)cc1 (stereo not drawn) [GSK1379735]

Response:
[34, 2, 42, 4, 0, 0]

====

# System: TYK2(JH1domain-catalytic)
# test.settings: concentration: 1 μM, replicates: in singlicate; n = 1
Hi there, I'd appreciate the recorded %Inh for every entry that follows.
One number for each entry, in %.

Example results:
compound	%Inh (%)
COc1cccc(C2=C(Nc3cc(Cl)c(O)c(Cl)c3)C(=O)NC2=O)c1	28
Fc1ccc(-c2nn3cccc(F)c3c2-c2ccncc2)cc1	22
COc1ccc(Nc2nccc(N3CCC(NC(=O)c4cc5ccccc5s4)C3)n2)cc1 (centres unmarked)	9
COc1ccc(Nc2nccc(-c3ccc(NC(=O)c4cc5cc(F)ccc5[nH]4)cc3)n2)cc1	23
Cc1ccc(NC(=O)Nc2ccccc2F)cc1-c1ccc(C(=O)Nc2ccncc2)cc1	0
NS(=O)(=O)c1cccc(N/C=C2\C(=O)Nc3ccc(S(=O)(=O)Cc4c(Cl)cccc4Cl)cc32)c1	30
COC(=O)c1cccc(NC(=O)NC2CCN(c3ccnc(Nc4ccc(OC)cc4)n3)C2)c1 (centres unmarked)	33

Shifting focus to the compound that follows.
Request: For the compound shown here, `Cc1ccc(-c2nc(Nc3ccncc3)c3ccccc3n2)s1` , give the reported %Inh.
Response: 24
